B1: KRT33B (parent)
chain: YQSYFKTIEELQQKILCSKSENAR

variants of: B1; assay: protein stability index of a GFP-peptide fusion (GPS, HEK-293T) (PSI 1-6); higher = more stable; conditions: c terminus: a fixed tail appended;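 note: lentivirally expressed fusions sorted by FACS into six bins by GFP to DsRed ratio, PSI derived from sequencing read proportions per bin multiplied by bin number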
Measured property: protein stability index
Please reply with the value in numeric form only.

I8P : 2.78
I8M : 1.79
A23I : 1.9
E9S : 2.99
Y4G : 2.08
Q2N : 2.16

Pending variant:
Read the entry C17W and write its reported protein stability index.
1.53

Provenance of the data: the supplement of paper PMC10567573
